- Test system: biotinyl-Leu-oxazolone
- ASSAY TEXT: self-aminoacylation, catalytic enhancement (BLO) (fold over background); higher = more active; k-Seq, kA / k0A0; sequences stand for … in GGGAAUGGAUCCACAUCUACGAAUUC…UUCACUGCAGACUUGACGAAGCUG
Variants at the floor of the assay were thinned out.
METRIC: self-aminoacylation
Numbers only.

| SEQUENCE CHAIN | METRIC | MEASURED NUMBER |
| --- | --- | --- |
| CCACAGUUCAAGCAAUCGGUA [Fam1B.1 aminoacylation ribozyme variant] | self-aminoacylation | 1.01 |
| AUGCACCUAUGUCAUCGGGUG [Fam2.2 aminoacylation ribozyme variant] | self-aminoacylation | 5.19 |
| CUACUUCAAAGGAUCGGUCUG [Fam1A.1 aminoacylation ribozyme variant] | self-aminoacylation | 0.912 |
| CCACCCUUUAAGCAAUCGGUC [Fam1B.1 aminoacylation ribozyme variant] | self-aminoacylation | 0.983 |
| AAGUCUGCUAAUAGUCGCGAG [Fam3.1 aminoacylation ribozyme variant] | self-aminoacylation | 1.36 |

For the 3 sequences below, give their self-aminoacylation values.
1. CCACACUUCUAGCAAUCGGGC [Fam1B.1 aminoacylation ribozyme variant]
2. AUACACUUCAAGCAAUCGGUC [Fam1B.1 aminoacylation ribozyme variant]
3. CCUCACUUCAAGCAAUCUGUC [Fam1B.1 aminoacylation ribozyme variant]

1.21
0.979
0.313

For the 6 sequences below, give their self-aminoacylation values.
1. GUCACCCUGGUCAUCGAGUGA [Fam2.1 aminoacylation ribozyme variant]
2. AUUACCCUGGCCAUCGCGUGA [Fam2.1 aminoacylation ribozyme variant]
3. CUACUGCAAACAAUCGGUCUU [Fam1A.1 aminoacylation ribozyme variant]
4. AUUCACCAAGGUCAUCGGGUA [Fam2.2 aminoacylation ribozyme variant]
5. AUCCACCUAGGCCAUCGGGUG [Fam2.2 aminoacylation ribozyme variant]
6. CAGUUUGCUAAUAGCCGCAAG [Fam3.1 aminoacylation ribozyme variant]

1. 7.9
2. 11
3. 0.953
4. 3.23
5. 5.49
6. 1.69

For the 2 sequences below, give their self-aminoacylation values.
1. CCACACCUCCAGCAAUCGGUC [Fam1B.1 aminoacylation ribozyme variant]
2. AAGUCUGCUAAUAGUCGCUAG [Fam3.1 aminoacylation ribozyme variant]

1. 1.15
2. 1.29

For the 8 sequences below, give their self-aminoacylation values.
1. CCGCACUUCAAGCACUCGGUC [Fam1B.1 aminoacylation ribozyme variant]
2. AUUACACGGGUCAUCGAGUGA [Fam2.1 aminoacylation ribozyme variant]
3. AAGUUUGGUAAUAGGCGCAAG [Fam3.1 aminoacylation ribozyme variant]
4. GGACACUUCAAGCAAUCGGUC [Fam1B.1 aminoacylation ribozyme variant]
5. UUUCACCUAGGUCAUCGUGUG [Fam2.2 aminoacylation ribozyme variant]
6. AUUCACCCAGGUCACCGGGUG [Fam2.2 aminoacylation ribozyme variant]
7. AUUACCCAGGUCAUCGAGUGU [Fam2.1 aminoacylation ribozyme variant]
8. CCACACUUCAUGCAAUCGGUA [Fam1B.1 aminoacylation ribozyme variant]

1.64
4.33
0.761
2.4
1.19
5.75
2.71
0.811

---

- Test system: biotinyl-Phe-oxazolone
- ASSAY TEXT: self-aminoacylation, catalytic enhancement (BFO) (fold over background); higher = more active; k-Seq, kA / k0A0; sequences stand for … in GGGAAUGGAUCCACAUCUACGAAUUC…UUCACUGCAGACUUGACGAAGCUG
This sample holds only a part of the variants without activity.
What self-aminoacylation was measured for each of the following?
Answers are plain numbers.

# count of solved cases: 5
| SEQUENCE CHAIN | MEASURED NUMBER |
| --- | --- |
| UUACUACAAACAAUCGGUCUG [Fam1A.1 aminoacylation ribozyme variant] | 1.62 |
| AUUUACCUAGGUCAUCGAGUG [Fam2.2 aminoacylation ribozyme variant] | 18.5 |
| CCACACUUCUAGCAAUCGGAC [Fam1B.1 aminoacylation ribozyme variant] | 0.585 |
| AUUACCCUGGUGAUCGUGUGA [Fam2.1 aminoacylation ribozyme variant] | 5.71 |
| CUUCUUCAAACAAUCGGUCAG [Fam1A.1 aminoacylation ribozyme variant] | 5.5 |

Kindly consider the entry below.
Supply recorded self-aminoacylation for CCACACUUCCAUCAAUCGGUC [Fam1B.1 aminoacylation ribozyme variant] here. 0.715

---

What self-aminoacylation was measured for each of the following?
- System: biotinyl-Phe-oxazolone
- ASSAY TEXT: self-aminoacylation, catalytic enhancement (BFO) (fold over background); higher = more active; k-Seq, kA / k0A0; sequences stand for … in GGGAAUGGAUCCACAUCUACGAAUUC…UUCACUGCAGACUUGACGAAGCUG
Variants at the floor of the assay were thinned out.
Give bare numbers.

# count of solved cases: 3
| SEQUENCE CHAIN | self-aminoacylation |
| --- | --- |
| CCACACUUCAAGCCAUGGGUC [Fam1B.1 aminoacylation ribozyme variant] | 0.678 |
| AUCACCCUGGUCAUCGGGUGA [Fam2.1 aminoacylation ribozyme variant] | 33.4 |
| GUUACCCUGGUCAUCUAGUGA [Fam2.1 aminoacylation ribozyme variant] | 78.6 |

For the 4 sequences below, give their self-aminoacylation values.
1. AUUACCCUGUUCUUCGAGUGA [Fam2.1 aminoacylation ribozyme variant]
2. AAGUUUCCGAAUAGUCGCAAG [Fam3.1 aminoacylation ribozyme variant]
3. AUUUCCCUAGGUCAUCGGGUG [Fam2.2 aminoacylation ribozyme variant]
4. AUUCACCUAGGUCAUCGGGGG [Fam2.2 aminoacylation ribozyme variant]

1: 23.3; 2: 2.81; 3: 70.4; 4: 32.6

Supply recorded self-aminoacylation for CCACACUAGAAGCAAUCGGUC [Fam1B.1 aminoacylation ribozyme variant] here. 0.713

---

- Test system: biotinyl-Met-oxazolone
- ASSAY TEXT: self-aminoacylation, catalytic enhancement (BMO) (fold over background); higher = more active; k-Seq, kA / k0A0; sequences stand for … in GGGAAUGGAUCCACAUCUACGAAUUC…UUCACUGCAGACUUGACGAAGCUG
This sample holds only a part of the variants without activity.
METRIC: self-aminoacylation
Give bare numbers.

| SEQUENCE CHAIN | self-aminoacylation |
| --- | --- |
| CCACACUUCAAGCUAUCGGAC [Fam1B.1 aminoacylation ribozyme variant] | 0.654 |

For the 4 sequences below, give their self-aminoacylation values.
1. AUUCACCUAGGUCAUCGGGGG [Fam2.2 aminoacylation ribozyme variant]
2. AUUCACCUGGGUGAUCGGGUG [Fam2.2 aminoacylation ribozyme variant]
3. CAGUUUGCAAAUAGUCGCAAG [Fam3.1 aminoacylation ribozyme variant]
4. CCACACUUCCUGCAAUCGGUC [Fam1B.1 aminoacylation ribozyme variant]

6.96
4.39
1.65
0.859

For the 2 sequences below, give their self-aminoacylation values.
1. CUUCUUCAGACAAUCGGUCUG [Fam1A.1 aminoacylation ribozyme variant]
2. AUUCACCUAGGUAAUCGGCUG [Fam2.2 aminoacylation ribozyme variant]

1: 0.651; 2: 1.23

---

- System: biotinyl-Trp-oxazolone
- ASSAY TEXT: self-aminoacylation, catalytic enhancement (BWO) (fold over background); higher = more active; k-Seq, kA / k0A0; sequences stand for … in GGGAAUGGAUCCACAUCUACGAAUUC…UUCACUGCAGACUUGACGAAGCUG
Fewer inactive variants are shown than the library holds.
What self-aminoacylation was measured for each of the following?
Answers are plain numbers.

# count of solved cases: 8
| SEQUENCE CHAIN | self-aminoacylation |
| --- | --- |
| CCACACUUCAAGCAAGCGGUG [Fam1B.1 aminoacylation ribozyme variant] | 2.4 |
| AGUACCCUGUUCAUCGAGUGA [Fam2.1 aminoacylation ribozyme variant] | 4.52 |
| UUUCCCCUAGGUCAUCGGGUG [Fam2.2 aminoacylation ribozyme variant] | 10.4 |
| AUUACCCUGGUCAUCGCGAGA [Fam2.1 aminoacylation ribozyme variant] | 2.72 |
| CCACACCUCAAGCAUUCGGUC [Fam1B.1 aminoacylation ribozyme variant] | 2.49 |
| AUUCCCCUAGGUGAUCGGGUG [Fam2.2 aminoacylation ribozyme variant] | 10.8 |
| GUACUUCAAAUAAUCGGUCUG [Fam1A.1 aminoacylation ribozyme variant] | 10.7 |
| CUUCACCUAGGUCAUCGGAUG [Fam2.2 aminoacylation ribozyme variant] | 0.921 |

For the 5 sequences below, give their self-aminoacylation values.
1. AUCACCCUGGUCAUCGGGUGA [Fam2.1 aminoacylation ribozyme variant]
2. AAGUUUGCUAAUAUUCGCAAA [Fam3.1 aminoacylation ribozyme variant]
3. CUUCACCUGGGUCAUCGGGUG [Fam2.2 aminoacylation ribozyme variant]
4. AUUACUCUGGUUAUCGAGUGA [Fam2.1 aminoacylation ribozyme variant]
5. AUUACCGUGGUCCUCGAGUGA [Fam2.1 aminoacylation ribozyme variant]

1: 14.1; 2: 2.04; 3: 4.89; 4: 10.5; 5: 4.82

For the 8 sequences below, give their self-aminoacylation values.
1. AAGUUGGCGAAUAGUCGCAAG [Fam3.1 aminoacylation ribozyme variant]
2. CUAGUUCAAACAAUCGCUCUG [Fam1A.1 aminoacylation ribozyme variant]
3. CUACAUCAAAUAAUCGGUCUG [Fam1A.1 aminoacylation ribozyme variant]
4. CGACACUUCAAGCAAUCGGCC [Fam1B.1 aminoacylation ribozyme variant]
5. AAGUAUGCUAAUAGUCGAAAG [Fam3.1 aminoacylation ribozyme variant]
6. AGUCACCUAGGUCCUCGGGUG [Fam2.2 aminoacylation ribozyme variant]
7. AAGUUUGGUAAUAGUCGCAAA [Fam3.1 aminoacylation ribozyme variant]
8. AUUCACCUAGGUCAUAGGUUG [Fam2.2 aminoacylation ribozyme variant]

1: 2.72; 2: 0.844; 3: 0.824; 4: 3.53; 5: 4.62; 6: 9.19; 7: 1.75; 8: 0.441

For the 6 sequences below, give their self-aminoacylation values.
1. AUUCACCUACGUCAUCAGGUG [Fam2.2 aminoacylation ribozyme variant]
2. CUACUUCAAACAAUCGCCCUG [Fam1A.1 aminoacylation ribozyme variant]
3. AUUACGCUGGUCAUCGUGUGA [Fam2.1 aminoacylation ribozyme variant]
4. AUGUUUGCUAAGAGUCGCAAG [Fam3.1 aminoacylation ribozyme variant]
5. AUUCAUCUAGGUCAUCCGGUG [Fam2.2 aminoacylation ribozyme variant]
6. AUUGACCGAGGUCAUCGGGUG [Fam2.2 aminoacylation ribozyme variant]

[2.08, 0.581, 3, 1.68, 6.87, 8.13]
